Normalized tolerance index TI values, listed per item
- STUDY_TARGET: Hordeum HPPD variant L353M, P321R, V212I, L334E (Hordeum vulgare, UniProt O48604, L334E/L353M/P321R/V212I)
- Construct: His (N); made in house; host or cells: E. coli BL21 (DE3)
- Sequence (O48604 whole entry R146V/R147D/R148G/A164G/V212I/P321R/L334E/L353M): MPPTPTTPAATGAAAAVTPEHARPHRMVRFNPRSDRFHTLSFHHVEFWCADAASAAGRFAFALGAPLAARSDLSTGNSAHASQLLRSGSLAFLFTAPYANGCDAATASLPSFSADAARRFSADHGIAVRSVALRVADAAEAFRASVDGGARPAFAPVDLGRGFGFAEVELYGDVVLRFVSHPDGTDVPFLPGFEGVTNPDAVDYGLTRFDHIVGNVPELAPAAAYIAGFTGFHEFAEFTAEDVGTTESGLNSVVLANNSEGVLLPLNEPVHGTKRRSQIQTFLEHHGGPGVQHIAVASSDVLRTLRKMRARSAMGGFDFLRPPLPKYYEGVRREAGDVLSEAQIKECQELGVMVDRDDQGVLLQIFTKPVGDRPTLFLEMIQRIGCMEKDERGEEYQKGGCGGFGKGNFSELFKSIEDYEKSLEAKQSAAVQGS
- PROTOCOL: HPPD activity assay, Hordeum HPPD mutant L353M, P321R, V212I, L334E
- Assay type: biochemical
- RUN_CONDITIONS: normalized on Hordeum wild-type HPPD
Respond using a number only.

Here's what some known entries look like.
## Task I am curious: what Normalized tolerance index TI value has been reported for CC1(C)c2cccnc2C(O)=C(c2ccc(Cl)nc2Cl)S1(=O)=O [Inhibitor 2] ?
## Result 1.9

## Task I am curious: what Normalized tolerance index TI value has been reported for CC1(C)c2cccnc2C(O)=C(c2ccc(Br)cc2C(F)(F)F)S1(=O)=O [Inhibitor 5] ?
## Result 3.4

## Task I am curious: what Normalized tolerance index TI value has been reported for COCCOCc1c(Cl)ccc(C2=C(O)c3ncccc3C(C)(C)S2(=O)=O)c1Cl [Inhibitor 3] ?
## Result 2.1

Further cases:
## Task I am curious: what Normalized tolerance index TI value has been reported for CC1=NOC(c2c(Cl)ccc(C3=C(O)c4ncccc4C(C)(C)S3(=O)=O)c2Cl)C1 (stereo not shown) [Inhibitor 1] ?
## Result 2.2
